Target or test system: SMYD3 (Homo sapiens (Human), UniProt Q9H7B4)
Sequence (Q9H7B4 whole entry): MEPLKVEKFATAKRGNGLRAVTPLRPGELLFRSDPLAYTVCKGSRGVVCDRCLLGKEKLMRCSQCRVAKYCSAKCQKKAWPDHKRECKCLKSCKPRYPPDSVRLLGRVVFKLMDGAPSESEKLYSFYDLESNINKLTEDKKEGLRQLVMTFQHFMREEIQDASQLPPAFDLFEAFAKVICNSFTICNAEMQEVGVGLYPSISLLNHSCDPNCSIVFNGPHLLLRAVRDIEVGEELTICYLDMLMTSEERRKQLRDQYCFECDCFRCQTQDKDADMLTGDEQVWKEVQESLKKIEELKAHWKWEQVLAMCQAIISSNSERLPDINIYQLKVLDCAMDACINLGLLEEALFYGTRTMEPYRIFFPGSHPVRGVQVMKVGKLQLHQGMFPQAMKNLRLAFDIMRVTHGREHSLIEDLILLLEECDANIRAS
Test name: SMYD3 cell assay (Trimethyl-MEKK2 In-Cell Western in 293T/17 cells)
Type: cell-based
Measurement conditions: read-out: SMYD3 Cell IC50*
Class key for IC50 values: b0 (below 60 nM), b1 (60 nM to below 100 nM), b2 (100 nM or more)

INSERT INTO results (compound, label_value) VALUES
  ('CN[C@H]1CC[C@H](S(=O)(=O)N2[C@@H]3CC[C@H]2C[C@@H](NC(=O)c2cc(C4CC4)on2)C3)CC1 [compound 786]', 'b0'),
  ('CCN(CC)C1CCN(S(=O)(=O)N2CC[C@H](NC(=O)c3cc(C4CC4)on3)C[C@@H]2C)CC1 [compound 872]', 'b2'),
  ('CCN(C)C1CCN(S(=O)(=O)N2[C@@H]3CC[C@H]2C[C@@H](NC(=O)c2cc(C4CC4)on2)C3)CC1 [compound 852]', 'b2'),
  ('CCCNC1CCN(S(=O)(=O)N2[C@@H]3CC[C@H]2C[C@@H](NC(=O)c2cc(C4CC4)on2)C3)CC1 [compound 863]', 'b1'),
  ('CC(C)c1cc(C(=O)N[C@H]2C[C@H]3CC[C@@H](C2)N3S(=O)(=O)N2CCC(N)CC2)no1 [compound 911]', 'b2'),
  ('C[C@H]1C[C@@H](NC(=O)c2cc(C3CC3)on2)CCN1S(=O)(=O)CC[C@@H]1CCNC1 [compound 841]', 'b2'),
  ('O=C(N[C@H]1C[C@H]2CC[C@@H](C1)N2S(=O)(=O)[C@H]1CC[C@H](NCCO)CC1)c1cc(C2CC2)on1 [compound 768]', 'b0'),
  ('C[C@@H](C1CCN(C)CC1)S(=O)(=O)N1[C@@H]2CC[C@H]1C[C@@H](NC(=O)c1cc(C3CC3)on1)C2 [compound 816]', 'b0'),
  ('C[C@H]1C[C@@H](NC(=O)c2cc(C3CC3)on2)CCN1S(=O)(=O)N1CCC(N2CCCC2)CC1 [compound 847]', 'b1'),
  ('C[C@H](C1CCNCC1)S(=O)(=O)N1[C@@H]2CC[C@H]1C[C@@H](NC(=O)c1cc(C3CC3)on1)C2 [compound 842]', 'b0'),
  ('CN1CCC[C@@H](S(=O)(=O)N2[C@@H]3CC[C@H]2C[C@@H](NC(=O)c2cc(C4CC4)on2)C3)C1 [compound 926]', 'b2'),
  ('NC1[C@@H]2CC[C@H]1CN(S(=O)(=O)N1[C@@H]3CC[C@H]1CC(NC(=O)c1cc(C4CC4)on1)C3)C2 (some centres unmarked) [compound 891]', 'b2'),
  ('CC1CN(S(=O)(=O)N2[C@@H]3CC[C@H]2C[C@@H](NC(=O)c2cc(C4CC4)on2)C3)C(C)CN1 (some centres unmarked) [compound 907]', 'b2');
